These data points were gathered from patent US20230348603A1.

Quick reference for ELISA OD450 among some binders
- System name: Mouse VSIG4-His (mouse)
- Sequence (chain, as listed by the source limits assumed): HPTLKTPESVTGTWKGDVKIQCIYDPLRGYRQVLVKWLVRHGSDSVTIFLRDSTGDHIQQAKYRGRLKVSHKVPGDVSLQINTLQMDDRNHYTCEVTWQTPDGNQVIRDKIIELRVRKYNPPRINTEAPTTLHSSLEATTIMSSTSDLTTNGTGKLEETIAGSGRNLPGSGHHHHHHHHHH
- Test summary: ELISA, Fab P.E. 1:5 on coated antigen

| Binder | Measure unit | ELISA OD450 |
| --- | --- | --- |
| 14D12 mouse Fab (periplasmic extract) (Fab, V domains shown) VH: QIQLVQSGPELKKPGETVKISCKASGYTFTNYGMNWVKQTPGKGLKWMGLINTYTGEPTYADDFKGRFAFSLETSASTAYLQINNLKNEDMATYFCARERIYGYLHYFDYWGQGTTLTVSS VL: DVVMTQTPASLAVSLGQRATISCKASQSVDYDGDSYMNWYQQKPGQPPKLLIYAASNLESGIPARFSGSGSGTDFTLNIHPVEEEDAATYYCQQSNEDPRTFGGGTKLEIK | OD450 | 0.054 |
| 14C05 mouse Fab (periplasmic extract) (Fab, V domains shown) VH: EVMLVESGPELKKPGETVKISCKASGYTFTNYGMNWVKQAPGKGLKWMGSINTYTGEATYADDFKGRFAFSLETSANTAYLQIDNLKNEDTATYFCARGDYYGRGTWFAYWGQGTLVTVSA VL: ETTVTQSHKFMSTSVGDRVSITCKASQDVSTAVAWYQQKPGQSPKLLIYSASYRYPGVPDRFTGSGSGTDFTFTISSVQAEDLAVYYCQQDYSSPWTFGGGTKLEIK | OD450 | 0.059 |
| 12A08 mouse Fab (periplasmic extract) (Fab, V domains shown) VH: EVMLVESGGGLVKPGGSLKLSCAASGFTFDDFYMYWVRQTPEKRLEWVASISDGGTYTYYPDSVKGRFTISRDNAKNTLYLQLSSLKSEDTAMYYCARGVDKYYYAMDYWGQGTSVTVSS VL: QILLTQSPAIMSASPGEKVTITCSASSSVSYMHWFQQKPGTSPKLWIYSTSNLASGVPARFSGSGSGTSYSLTISRMEAEDAATYYCQQRSSYPLTFGAGTKLELK | OD450 | 0.057 |
